Value source: paper PMC4169570

- ASSAY SYSTEM: T1, HMGE F94Y (Pantoea stewartii subsp. stewartii, UniProt P54293 1-249, F94Y)
- T1 sequence: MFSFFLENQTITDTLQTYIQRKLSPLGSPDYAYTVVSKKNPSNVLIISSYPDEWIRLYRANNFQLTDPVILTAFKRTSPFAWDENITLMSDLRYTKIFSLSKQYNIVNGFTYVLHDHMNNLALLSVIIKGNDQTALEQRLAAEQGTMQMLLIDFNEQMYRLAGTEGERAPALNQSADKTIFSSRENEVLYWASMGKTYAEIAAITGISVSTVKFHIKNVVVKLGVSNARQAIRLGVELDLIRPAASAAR
- TEST DETAILS: fluorescence anisotropy; 1 uM AHL; 150 mM NaCl, 6 mM HEPES, 17.5 mM Tris, 3% glycerol, pH 7.6, 25 C, 20 min; 3 nM T-esabox, 0-100 nM protein
- CONDITION DETAILS: protein: recombinant; tags: N-terminal His6-MBP-TEV-Gly5; chain copies: 2; label: 5' TAMRA on strand 1; blunt
MEASURED PARAMETER: Kd (nM)

[
  {
    "BINDER": "T-esabox (PesaR28 TAMRA/PesaR28R) (dsDNA) DNA 1: TCTTGCCTGTACTATAGTGCAGGTTAAG DNA 2: CTTAACCTGCACTATAGTACAGGCAAGA",
    "MEASURED PARAMETER": "Kd",
    "ENDPOINT RESULT": 2.65
  }
]
